assay: in vitro; conditions: human, Cytotoxixity CC50
reported endpoint: CC50

INPUT: # lookup: CC50 of Nc1ccn([C@@H]2CS[C@H](CO)O2)c(=O)n1 [Lamivudine, reference compound]
OUTPUT: > 20 µg/mL

###

tested on: Human immunodeficiency virus (ROD); test: Antiviral CPE assay, HIV-2 (ROD) in MT-4 cells; type: cell-based; conditions: Human immunodeficiency virus 2, MT4
Reported EC50 values are given for each entry in this list.

// solved cases for EC50 follow
{"compound": "Cc1cn([C@H]2C[C@H](N=[N+]=[N-])[C@@H](CO)O2)c(=O)[nH]c1=O [Zidovudine, reference compound]", "EC50": "0.002 µg/mL"}
{"compound": "Cc1cn(C2CC=C(CO)C3CC32)c(=O)[nH]c1=O (centres unmarked) [Compound 19]", "EC50": "> 109 µg/mL"}
{"compound": "OCC1C(O)CC(n2cc(-c3ccccc3)nn2)C2CC12 (centres unmarked) [Compound 3c]", "EC50": "> 96.2 µg/mL"}
{"compound": "OCc1cn(C2CC(O)C(CO)C3CC32)nn1 (centres unmarked) [Compound 3e]", "EC50": "> 116 µg/mL"}

INPUT: # lookup: EC50 of NC(=O)c1nnn(C2CC(O)C(CO)C3CC32)c1N (centres unmarked) [Compound 3b]
OUTPUT: > 125 µg/mL

The values you see were collected from paper PMC9680032.
